- Protocol Summary: PK in rats, intravenous administration
- Type: in vivo
- Condition Parameters: male, Sprague-Dawley, 1 mg/kg, rat plasma
Structures can show the parent of a compound that is named as a salt.
half-life values, listed per item

| Compound | Value Type | Result |
| --- | --- | --- |
| COC1(c2cc(S(=O)(=O)NC(=O)Nc3c4c(cc5c3CCC5)CCC4)nn2C)CCC1 | half-life | 1 h |
| CC(C)n1cnc(S(=O)(=O)NC(=O)Nc2c3c(cc4c2CCC4)CCC3)n1 [Example 46, sodium salt] | half-life | 4 h |
| COC(C)(C)c1cc(S(=O)(=O)NC(=O)Nc2c(C(C)C)cc(Cl)cc2C(C)C)nn1C | half-life | 3.9 h |

Problem: Any idea what its half-life is? The compound is [2H]C([2H])([2H])C([2H])(n1ccc(S(=O)(=O)NC(=O)Nc2c3c(cc4c2CCC4)CCC3)n1)C([2H])([2H])[2H] [Example 20, potassium salt]
Result: 4.7 h

Data origin: patent US20220106289A1
